Reported residual activity values for a set of compounds
Target: Calcium/calmodulin-dependent protein kinase type IV (Homo sapiens) (UniProt Q16566)
Sequence (Q16566 whole entry): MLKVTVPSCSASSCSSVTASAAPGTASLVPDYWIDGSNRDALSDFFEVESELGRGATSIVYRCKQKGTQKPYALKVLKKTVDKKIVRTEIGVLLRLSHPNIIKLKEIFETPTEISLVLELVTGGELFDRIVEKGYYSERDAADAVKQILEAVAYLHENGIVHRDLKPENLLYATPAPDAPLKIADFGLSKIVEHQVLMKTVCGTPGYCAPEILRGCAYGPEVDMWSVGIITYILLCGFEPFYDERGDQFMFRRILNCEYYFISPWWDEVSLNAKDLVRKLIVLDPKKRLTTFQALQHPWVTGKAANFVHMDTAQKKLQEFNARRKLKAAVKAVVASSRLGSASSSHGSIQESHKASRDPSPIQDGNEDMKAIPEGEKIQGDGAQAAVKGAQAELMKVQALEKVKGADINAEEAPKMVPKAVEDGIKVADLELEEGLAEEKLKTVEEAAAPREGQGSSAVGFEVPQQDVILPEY
Conditions: at 1 µM
Answer format: numeric, % implied, no suffix.

Illustrative cases are given below, each with its answer.
INSERT INTO measurements (given_smiles, data_value) VALUES
  ('CN(C)CCCn1cc(C2=C(c3c[nH]c4ccccc34)C(=O)NC2=O)c2ccccc21', 88),
  ('Cn1cc(/C=C2\C(=O)Nc3ccc(S(N)(=O)=O)cc32)c2ccccc21', 120),
  ('Cc1cc2ncc(-c3ccccc3)nc2cc1C', 108);

As a next step, examine the compound that follows.
Record O=Nc1c(-c2c(O)[nH]c3ccccc23)[nH]c2ccccc12 . Reported residual activity: 66

====

Target: MAP kinase-activated protein kinase 5 (Homo sapiens) (UniProt Q8IW41)
Sequence (whole entry): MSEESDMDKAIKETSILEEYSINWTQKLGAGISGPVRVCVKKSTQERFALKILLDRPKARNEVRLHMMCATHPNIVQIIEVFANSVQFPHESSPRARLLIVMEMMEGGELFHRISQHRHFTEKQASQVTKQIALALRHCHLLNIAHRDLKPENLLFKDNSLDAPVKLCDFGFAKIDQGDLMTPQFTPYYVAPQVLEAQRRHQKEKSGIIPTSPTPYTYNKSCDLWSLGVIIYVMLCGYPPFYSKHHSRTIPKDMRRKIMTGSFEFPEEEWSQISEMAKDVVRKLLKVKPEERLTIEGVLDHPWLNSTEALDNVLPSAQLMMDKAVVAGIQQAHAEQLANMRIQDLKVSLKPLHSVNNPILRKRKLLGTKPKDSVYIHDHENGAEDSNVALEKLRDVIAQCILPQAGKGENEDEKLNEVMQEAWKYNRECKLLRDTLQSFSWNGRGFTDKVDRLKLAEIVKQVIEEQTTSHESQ
Settings: at 1 µM
measured-attribute: residual activity (%)
Answer format: numeric, % implied, no suffix.

Illustrative cases are given below, each with its answer.
INSERT INTO results (given_smiles, data_value) VALUES
  ('Nc1nc(Nc2ccc(S(N)(=O)=O)cc2)nn1C(=S)Nc1c(F)cccc1F', 32),
  ('Cn1cc(/C=C2\C(=O)Nc3ccc(S(N)(=O)=O)cc32)c2ccccc21', 62),
  ('COc1ccc(S(=O)(=O)N(CCO)c2ccccc2CN(C)C/C=C/c2ccc(Cl)cc2)cc1', 98),
  ('Cc1cccc(-c2[nH]c(C(C)(C)C)nc2-c2ccc3c(c2)OCO3)n1', 92),
  ('COc1cc2ncnc(Nc3ccc(O)c(Br)c3)c2cc1OC', 77),
  ('O=C1NC(=O)/C(=C/c2ccc3c(c2)OC(F)(F)O3)S1', 106);

As a next step, examine the molecule that follows.
Record COc1cccc(-c2cc(=O)c3ccccc3o2)c1N . Reported residual activity: 125

====

Target: Serine/threonine-protein kinase haspin (Homo sapiens) (UniProt Q8TF76)
Sequence (whole entry): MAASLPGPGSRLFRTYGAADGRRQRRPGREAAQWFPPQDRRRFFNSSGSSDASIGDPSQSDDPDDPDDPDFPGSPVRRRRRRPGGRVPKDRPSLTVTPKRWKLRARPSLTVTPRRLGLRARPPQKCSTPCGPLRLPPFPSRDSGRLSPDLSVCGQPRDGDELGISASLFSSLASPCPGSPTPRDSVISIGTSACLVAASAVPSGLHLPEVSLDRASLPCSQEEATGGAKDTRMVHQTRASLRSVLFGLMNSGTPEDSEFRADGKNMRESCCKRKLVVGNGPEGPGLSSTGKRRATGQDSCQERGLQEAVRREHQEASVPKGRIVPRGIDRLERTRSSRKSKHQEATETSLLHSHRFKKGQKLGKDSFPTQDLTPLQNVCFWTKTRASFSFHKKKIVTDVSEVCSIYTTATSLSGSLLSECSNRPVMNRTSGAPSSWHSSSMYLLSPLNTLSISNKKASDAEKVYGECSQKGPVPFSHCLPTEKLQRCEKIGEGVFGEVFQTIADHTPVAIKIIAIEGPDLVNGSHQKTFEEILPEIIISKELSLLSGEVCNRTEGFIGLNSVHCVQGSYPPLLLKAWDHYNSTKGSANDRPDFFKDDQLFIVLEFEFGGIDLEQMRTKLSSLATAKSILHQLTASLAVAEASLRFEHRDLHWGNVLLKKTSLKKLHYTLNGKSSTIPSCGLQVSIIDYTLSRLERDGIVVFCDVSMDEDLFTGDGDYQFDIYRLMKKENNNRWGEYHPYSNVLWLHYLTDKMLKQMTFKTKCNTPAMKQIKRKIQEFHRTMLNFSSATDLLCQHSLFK
Conditions: at 10 µM
Reported residual activity values for a set of compounds
Answer format: numeric, % implied, no suffix.

Illustrative cases are given below, each with its answer.
INSERT INTO results (given_smiles, measured_attribute, unit, data_value) VALUES
  ('CC(=O)O/N=C1\C(=C2\C(=O)Nc3cc(Br)ccc32)Nc2ccccc21', 'residual activity', '%', 74),
  ('Nc1cccc(-c2cc3c(Oc4cccc(O)c4)ncnc3[nH]2)c1', 'residual activity', '%', 45),
  ('O=C1NC(=O)/C(=C\c2ccc3nccnc3c2)S1', 'residual activity', '%', 3);

Note to self: residual activity of c1ccc(-c2n[nH]cc2-c2ccnc3ccccc23)nc1 with Serine/threonine-protein kinase haspin (Homo sapiens) (UniProt Q8TF76) was 49
